Tested on: L/V BET bromodomains (BD1 and BD2 of BRD2, BRD3 and BRD4)
assay-remarks: competitive AlphaLISA (Bio-JQ1 displacement)
Assay type: binding, human
applied-conditions: L/V minus WT
measurement-name: AlphaLISA pIC50 ± SD Δ
Reply briefly: the number, and no unit.

Query: Any idea what AlphaLISA pIC50 ± SD Δ was measured for CC[C@@H](C(=O)OC(C)(C)C)[C@@H]1N=C(c2ccc(Cl)cc2)c2cc(OC)ccc2-n2c(C)nnc21 ?
Response: 0.7

Query: Any idea what AlphaLISA pIC50 ± SD Δ was measured for CCNC(=O)[C@H](C)[C@@H]1N=C(c2ccc(Cl)cc2)c2ccc(OC)cc2-n2c(C)nnc21 (relative stereo) ?
Response: 1.3

Query: Any idea what AlphaLISA pIC50 ± SD Δ was measured for C=CC[C@@H](C(=O)OC)[C@@H]1N=C(c2ccc(Cl)cc2)c2ccc(OC)cc2-n2c(C)nnc21 (relative stereo) ?
Response: 1.3

---

I'd appreciate it if you could supply IC50 values for the items below.
assay-system: BRD2 BD2 L/V (Homo sapiens, UniProt P25440, L383V)
Sequence (P25440 344-455 L383V): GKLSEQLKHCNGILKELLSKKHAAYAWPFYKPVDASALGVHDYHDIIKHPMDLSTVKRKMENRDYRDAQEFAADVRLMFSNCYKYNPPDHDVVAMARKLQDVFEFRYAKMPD
assay-remarks: competitive AlphaLISA
Format: binding
Please reply with the bare figure in nM and do not write the unit itself.

Query: Any idea what IC50 was measured for C=CC[C@@H](C(=O)OC(C)(C)C)[C@@H]1N=C(c2ccc(Cl)cc2)c2ccc(OC)cc2-n2c(C)nnc21 [Compound 26] ?
Response: 1580

Query: Any idea what IC50 was measured for C=CC[C@@H](C(=O)NCC)[C@@H]1N=C(c2ccc(Cl)cc2)c2cc(OC)ccc2-n2c(C)nnc21 (relative stereo) [Compound 18] ?
Response: 1000

Query: Any idea what IC50 was measured for CCC[C@@H](C(=O)OC)[C@@H]1N=C(c2ccc(Cl)cc2)c2cc(OC)ccc2-n2c(C)nnc21 (relative stereo) [Compound 6] ?
Response: 10000

Query: Any idea what IC50 was measured for C=CC[C@@H](C(=O)OC)[C@@H]1N=C(c2ccc(Cl)cc2)c2cc(OC)ccc2-n2c(C)nnc21 (racemic) [Compound 5] ?
Response: 158

Query: Any idea what IC50 was measured for CCNC(=O)[C@H](C)[C@@H]1N=C(c2ccc(Cl)cc2)c2ccc(OC)cc2-n2c(C)nnc21 (relative stereo) [Compound 21] ?
Response: 1000

Query: Any idea what IC50 was measured for COC(=O)[C@H](C)[C@@H]1N=C(c2ccc(Cl)cc2)c2ccc(OC)cc2-n2c(C)nnc21 (racemic) [Compound 7] ?
Response: 316

Query: Any idea what IC50 was measured for CC[C@@H](C(=O)OC(C)(C)C)[C@@H]1N=C(c2ccc(Cl)cc2)c2cc(OC)ccc2-n2c(C)nnc21 [Compound 23] ?
Response: 1000

Query: Any idea what IC50 was measured for CC[C@@H](C(=O)N(CC)CC)[C@@H]1N=C(c2ccc(Cl)cc2)c2cc(OC)ccc2-n2c(C)nnc21 (relative stereo) [Compound 20] ?
Response: 1580

Query: Any idea what IC50 was measured for CCN(CC)C(=O)[C@H](C)[C@@H]1N=C(c2ccc(Cl)cc2)c2cc(OC)ccc2-n2c(C)nnc21 (relative stereo) [Compound 19] ?
Response: 1000

Query: Any idea what IC50 was measured for C=CC[C@@H](C(=O)OC)[C@@H]1N=C(c2ccc(Cl)cc2)c2ccc(OC)cc2-n2c(C)nnc21 (relative stereo) [Compound 9] ?
Response: 1260

Query: Any idea what IC50 was measured for CC[C@@H](C(=O)OC)[C@@H]1N=C(c2ccc(Cl)cc2)c2cc(OC)ccc2-n2c(C)nnc21 (relative stereo) [Compound 4] ?
Response: 158

Query: Any idea what IC50 was measured for CCNC(=O)[C@H](CC)[C@@H]1N=C(c2ccc(Cl)cc2)c2ccc(OC)cc2-n2c(C)nnc21 (relative stereo) [Compound 22] ?
Response: 7940

Query: Any idea what IC50 was measured for COC(=O)CC1N=C(c2ccc(Cl)cc2)c2cc(OC)ccc2-n2c(C)nnc21 (stereo not shown) [Compound 1] ?
Response: 316

Query: Any idea what IC50 was measured for COC(=O)CC1N=C(c2ccc(Cl)cc2)c2ccc(OC)cc2-n2c(C)nnc21 (stereo not shown) [Compound 2] ?
Response: 2000

Query: Any idea what IC50 was measured for C=CC[C@@H](C(=O)OC(C)(C)C)[C@@H]1N=C(c2ccc(Cl)cc2)c2cc(OC)ccc2-n2c(C)nnc21 [Compound 24] ?
Response: 501

Query: Any idea what IC50 was measured for CC[C@@H](C(=O)OC)[C@@H]1N=C(c2ccc(Cl)cc2)c2ccc(OC)cc2-n2c(C)nnc21 (racemic) [Compound 8] ?
Response: 200
